Entries and their MFI values follow.
tested-target: T1, human adenosine A2A receptor (A2aR) (human, UniProt P29274 1-412)
T1 construct: Assays used HEK293 cells stably overexpressing human A2aR (BPS Bioscience 79381), human A2aR-expressing CHO cells, or endogenous A2aR on human PBMC; also called human A2aR; hA2aR
T1 sequence (P29274 whole entry): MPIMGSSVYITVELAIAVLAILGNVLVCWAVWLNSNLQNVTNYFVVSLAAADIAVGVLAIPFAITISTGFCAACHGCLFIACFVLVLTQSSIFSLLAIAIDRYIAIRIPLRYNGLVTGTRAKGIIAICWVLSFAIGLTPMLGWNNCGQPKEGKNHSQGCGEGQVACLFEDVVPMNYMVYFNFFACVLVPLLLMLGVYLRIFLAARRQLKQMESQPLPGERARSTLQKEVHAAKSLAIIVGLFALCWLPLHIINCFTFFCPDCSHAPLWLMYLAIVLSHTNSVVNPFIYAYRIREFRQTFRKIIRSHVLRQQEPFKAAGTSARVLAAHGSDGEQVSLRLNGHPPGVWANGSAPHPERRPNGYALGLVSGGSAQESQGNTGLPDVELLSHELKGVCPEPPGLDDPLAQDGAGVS
assay-info: flow cytometry, HEK293-hA2aR cells, supernatant 1 ug/ml
Please give a number only; it is taken to be in MFI.

State, in one line, measured MFI of Hu1B5-H1/Hu1B5-L3 (antibody, human IgG1, V domains shown, Human IgG1 FES (L234F, L235E, P331S) and human Ig kappa constant domains) VH: QVQLVQSGAEVKKPGASVKVSCKASGFTFTRFWMNWVRQAPGQGLEWMGRIDPYDSETQYNHKFWDRVTMTRDTSTSTVYMELSSLRSEDTAVYYCGRSLYGKGDYWGQGTTVTVSS VL: DVVMTQSPLSLPVTLGQPASISCRSSQSIVHSNGNTYLEWYQQRPGQSPRLLIYKVSNRFSGVPDRFSGSGSGTDFTLKISRVEAEDVGVYYCFQGSHVPLTFGGGTKVEIK 1840

State, in one line, measured MFI of Hu1B5-H4/Hu1B5-L3 (antibody, human IgG1, V domains shown, Human IgG1 FES (L234F, L235E, P331S) and human Ig kappa constant domains) VH: EVQLVQSGAEVKKPGASVKVSCKTSGFTFTRFWMNWVRQAPGQGLEWIGRIDPYDSETQYNHKFWDRATLTVDKSSSTVYMELSSLRSEDTAVYYCGRSLYGKGDYWGQGTTVTVSS VL: DVVMTQSPLSLPVTLGQPASISCRSSQSIVHSNGNTYLEWYQQRPGQSPRLLIYKVSNRFSGVPDRFSGSGSGTDFTLKISRVEAEDVGVYYCFQGSHVPLTFGGGTKVEIK 1860

State, in one line, measured MFI of Hu1B5-H2.1/Hu1B5-L2 (antibody, human IgG1, V domains shown, Human IgG1 FES (L234F, L235E, P331S) and human Ig kappa constant domains) VH: EVQLVQSGAEVKKPGASVKVSCKTSGFTFTRFWMNWVRQAPGQGLEWIGRIDPYDSETQYNHKFWDRVTMTVDTSTSTVYMELSSLRSEDTAVYYCGRSLYGKGDYWGQGTTVTVSS VL: DVVMTQSPLSLPVTLGQPASISCRSSQSIVHSNGNTYLEWYQQRPGQSPRRLIYKVSNRFSGVPDRFSGSGSGTDFTLKISRVEAEDVGVYYCFQGSHVPLTFGGGTKVEIK 225

Entry source: patent US20250206828A1
